As shown below, each of these molecules has a reported DC50 value.
target: ERα (Homo sapiens); assay: Estrogen receptor-alpha (ERα) degradation assay in MCF-7 cells using western blot; assay type: cell-based; parameters: assessed for their activity in degrading ERα in MCF-7 cells via western blot; endogenous in cells; host or cells: MCF7 cells; settings: ER-alpha degradation, MCF7 cells, 3 days of incubation

Solved cases below.
# molecule, readout label, readout value
records = [
    ("Cc1ncsc1-c1ccc([C@H](C)NC(=O)[C@@H]2C[C@@H](O)CN2C(=O)[C@@H](NC(=O)COCCOCCN(C)CCOc2ccc(Oc3c(-c4ccc(F)cc4)sc4cc(O)ccc34)cc2)C(C)(C)C)cc1", "DC50", "< 1 nM"),
    ("Cc1ncsc1-c1ccc(CNC(=O)[C@@H]2C[C@@H](O)CN2C(=O)C(c2cc(OCCN3CCN(CCOc4ccc(Oc5c(-c6ccc(Br)cc6)sc6cc(O)ccc56)cc4)CC3)no2)C(C)C)cc1 (stereo in doubt)", "DC50", "1 to 10 nM"),
    ("C[C@H](NC(=O)[C@@H]1C[C@@H](O)CN1C(=O)[C@@H](NC(=O)Cc1ccc(-c2ccn(CCOc3ccc(Oc4c(-c5ccc(F)cc5)sc5cc(O)ccc45)cc3)n2)cc1)C(C)(C)C)c1ccc(C#N)cc1", "DC50", "1 to 10 nM"),
    ("Cc1ncoc1-c1ccc([C@H](C)NC(=O)[C@@H]2C[C@@H](O)CN2C(=O)[C@@H](NC(=O)COCCOCCOCCOc2ccc(Oc3c(-c4ccc(Br)cc4)sc4cc(O)ccc34)cc2)C(C)(C)C)cc1", "DC50", "< 1 nM"),
    ("C[C@H](NC(=O)[C@@H]1C[C@@H](O)CN1C(=O)[C@@H](NC(=O)COCCOCCN1CCC(c2ccc(Oc3c(-c4ccc(F)cc4)sc4cc(O)ccc34)cc2)CC1)C(C)(C)C)c1ccc(C#N)cc1", "DC50", "1 to 10 nM"),
]

Problem: Read the entry `Cc1ncsc1-c1ccc(CNC(=O)[C@@H]2C[C@@H](O)CN2C(=O)[C@@H](NC(=O)CCc2cccc(-c3ccn(CCOc4ccc(Oc5c(-c6ccc(F)cc6)sc6cc(O)ccc56)cc4)n3)c2)C(C)(C)C)cc1` and write its reported DC50.
Solution: 1 to 10 nM

Problem: Read the entry `Cc1ncsc1-c1ccc(CNC(=O)[C@@H]2C[C@@H](O)CN2C(=O)[C@@H](NC(=O)COCCOCCN2CCC(c3ccc(Oc4c(-c5ccc(F)cc5)sc5cc(O)ccc45)cc3)CC2)C(C)(C)C)cc1` and write its reported DC50.
Solution: < 1 nM

Problem: Read the entry `Cc1ncsc1-c1ccc(CNC(=O)[C@@H]2C[C@@H](O)CN2C(=O)[C@@H](NC(=O)COCCOC2CN(CCOc3ccc(Oc4c(-c5ccc(F)cc5)sc5cc(O)ccc45)cc3)C2)C(C)(C)C)cc1` and write its reported DC50.
Solution: 1 to 10 nM

Problem: Read the entry `Cc1ncsc1-c1ccc(CNC(=O)[C@@H]2C[C@@H](O)CN2C(=O)[C@@H](NC(=O)CN2CCN(CCOCCOc3ccc(Oc4c(-c5ccc(Br)cc5)sc5cc(O)ccc45)cc3)CC2)C(C)(C)C)cc1` and write its reported DC50.
Solution: 10 to 100 nM

###

Biological target: ERα (Homo sapiens, UniProt P03372)
Sequence (P03372 1-595): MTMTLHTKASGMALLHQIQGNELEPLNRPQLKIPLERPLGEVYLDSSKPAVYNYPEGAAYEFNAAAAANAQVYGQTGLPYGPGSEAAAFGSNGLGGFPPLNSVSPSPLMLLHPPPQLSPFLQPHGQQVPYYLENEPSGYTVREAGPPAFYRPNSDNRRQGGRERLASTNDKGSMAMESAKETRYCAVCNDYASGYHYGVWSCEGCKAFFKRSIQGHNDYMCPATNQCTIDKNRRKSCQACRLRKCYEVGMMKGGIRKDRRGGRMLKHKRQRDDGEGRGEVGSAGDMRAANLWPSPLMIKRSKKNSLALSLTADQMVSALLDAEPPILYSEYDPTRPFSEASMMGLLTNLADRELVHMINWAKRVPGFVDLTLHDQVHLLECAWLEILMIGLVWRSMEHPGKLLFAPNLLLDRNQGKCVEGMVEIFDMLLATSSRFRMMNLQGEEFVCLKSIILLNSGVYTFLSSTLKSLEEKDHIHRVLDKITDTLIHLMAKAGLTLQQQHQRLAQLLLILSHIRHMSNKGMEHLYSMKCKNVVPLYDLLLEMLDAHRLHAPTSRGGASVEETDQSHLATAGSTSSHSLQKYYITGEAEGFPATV
Assay: ERE luciferase reporter gene assay in T47D-KBluc cells (target engagement)
Assay type: cell-based
Parameters: T47D human breast cancer cells stably transfected with estrogen responsive element/promoter/luciferase reporter gene; host or cells: T47D-KBluc cells
Details: 10% FBS, 24 hours, Table 1 cereblon centric PROTACs, read-out: ER-α Luciferase IC50
pIC50: −log10 of the molar value.
readout label: pIC50

# compound, pIC50
data = [
    ("O=C1CCC(N2Cc3c(NCCOCCOCCOc4ccc(Oc5c(-c6ccc(Br)cc6)sc6cc(O)ccc56)cc4)cccc3C2=O)C(=O)N1 (stereo not drawn) [Compound 24]", 7.77),
    ("O=C1CCC(N2Cc3cc(NCCCC4CCN(CCOc5ccc(Oc6c(-c7ccc(Br)cc7)sc7cc(O)ccc67)cc5)CC4)ccc3C2=O)C(=O)N1 (stereo not drawn) [Compound 64]", 8.54),
    ("CC(COc1ccc(Oc2c(-c3ccc(Br)cc3)sc3cc(O)ccc23)cc1)N1CCN(CCCCc2ccc3c(c2)CN(C2CCC(=O)NC2=O)C3=O)CC1 (stereo not drawn) [Compound 53]", 9.22),
]

(A) O=C1CCC(N2Cc3cc(N4CCN(CCCCOc5ccc(Oc6c(-c7ccc(Br)cc7)sc7cc(O)ccc67)cc5)CC4)ccc3C2=O)C(=O)N1 (stereo not drawn) [Compound 58]
(B) O=C1CCC(N2Cc3cc(NCCOCCOCCOc4ccc(Oc5c(-c6ccc(Br)cc6)sc6cc(O)ccc56)cc4)ccc3C2=O)C(=O)N1 (stereo not drawn) [Compound 86]
(C) O=C1CCC(N2C(=O)c3ccc(NCCCOCCCOc4ccc(Oc5c(-c6ccc(Br)cc6)sc6cc(O)ccc56)cc4)cc3C2=O)C(=O)N1 (stereo not drawn) [Compound 82]
(D) O=C1CCC(N2Cc3cc(N4CCN(CCOc5ccc(Oc6c(-c7ccc(Br)cc7)sc7cc(O)ccc67)cc5)CC4)ccc3C2=O)C(=O)N1 (stereo not drawn) [Compound 55]
Problem: Descending sort on pIC50 required. # format: label list in the order the request specifies
Solution: D, A, B, C
